All values here come from the supplement of paper PMC8967900.

- Test system: KASUMI-9
- measurement.notes: selective drug sensitivity score (sDSS, relative to normal bone marrow) (sDSS (score)); higher = more potent and effective on the cell line relative to normal bone marrow cells;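 note: ALL cell lines in 384-well plates, five doses spanning 10,000-fold, each plate scaled between vehicle and 100 µmol/L benzalkonium chloride controls, sDSS an adapted area-under-curve metric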
- experimental.setup: 72 h
Label True when selective drug sensitivity score >= 1; otherwise False.

>  <compound>
O=C(Nc1ccncc1)C(=O)c1cn(Cc2ccc(Cl)cc2)c2ccccc12 [Indibulin] (top concentration 10000 nM)

>  <category.label>
True

$$$$
>  <compound>
CNC(=O)CN1CCC(Oc2cc3c(Nc4cccc(Cl)c4F)ncnc3cc2OC)CC1 [Sapitinib] (top concentration 1000 nM)

>  <category.label>
False

$$$$

In: Does selective drug sensitivity score meet or surpass 1 for CNC(=O)c1cc(Oc2ccc(NC(=O)Nc3ccc(Cl)c(C(F)(F)F)c3)cc2)ccn1 [Sorafenib] (top concentration 1000 nM) ?
Out: False

In: Does selective drug sensitivity score meet or surpass 1 for Nc1cccc2c1CN(C1CCC(=O)NC1=O)C2=O (configuration not stated) [Lenalidomide] (top concentration 100000 nM) ?
Out: True

In: Does selective drug sensitivity score meet or surpass 1 for C[C@]1(c2nc3c(C(N)=O)cccc3[nH]2)CCCN1 [Veliparib] (top concentration 10000 nM) ?
Out: True

In: Does selective drug sensitivity score meet or surpass 1 for CC[C@H](C)C(=O)O[C@H]1C[C@H](O)C=C2C=C[C@H](C)[C@H](CC[C@@H](O)C[C@@H](O)CC(=O)O)[C@H]21 [Pravastatin] (top concentration 10000 nM) ?
Out: False

In: Does selective drug sensitivity score meet or surpass 1 for Cc1cc(C(C)Nc2ccccc2)c2nc(N3CCOCC3)cc(=O)n2c1 (configuration not stated) [TGX-221] (top concentration 10000 nM) ?
Out: True

---

- Tested on: COG-LL-332h
- measurement.notes: selective drug sensitivity score (sDSS, relative to normal bone marrow) (sDSS (score)); higher = more potent and effective on the cell line relative to normal bone marrow cells
- experimental.setup: 72 h
Label yes (1) when selective drug sensitivity score >= 7; otherwise no (0).

>  <compound>
CC(C)C[C@H](NC(=O)CNC(=O)c1cc(Cl)ccc1Cl)B(O)O [Ixazomib] (top concentration 1000 nM)

>  <category.label>
yes (1)

$$$$

In: Does selective drug sensitivity score meet or surpass 7 for C=C1C[C@@H]2CC[C@@]34C[C@H]5O[C@H]6[C@@H](O3)[C@H]3O[C@H](CC[C@@H]3O[C@H]6[C@H]5O4)CC(=O)C[C@@H]3[C@@H](OC)[C@@H](C[C@H](O)CN)O[C@H]3C[C@H]3O[C@@H](CC[C@@H]1O2)C[C@@H](C)C3=C [Eribulin] (top concentration 1000 nM) ?
Out: yes (1)

In: Does selective drug sensitivity score meet or surpass 7 for CC1=C2C[C@H]3[C@@H](CC[C@@H]4C[C@H](NS(C)(=O)=O)CC[C@@]43C)[C@@H]2CC[C@@]2(C1)O[C@@H]1C[C@H](C)CN[C@H]1[C@H]2C [Saridegib] (top concentration 10000 nM) ?
Out: no (0)

In: Does selective drug sensitivity score meet or surpass 7 for COc1cccc(OCCCN)c1-c1cc(Nc2cnc(C#N)cn2)n[nH]1 [Prexasertib] (top concentration 10000 nM) ?
Out: yes (1)

---

- System: KOPN-8
- measurement.notes: selective drug sensitivity score (sDSS, relative to normal bone marrow) (sDSS (score)); higher = more potent and effective on the cell line relative to normal bone marrow cells
- experimental.setup: 72 h
Label Condition met when selective drug sensitivity score >= 0.4; otherwise Condition not met.

Here's what some known entries look like.
>  <compound>
CC(C)Cn1cnc2c(N)nc3ccccc3c21 [Imiquimod] (top concentration 2500 nM)

>  <category.label>
Condition met

$$$$
>  <compound>
Cc1c(Cn2c(C)nc3c(C(=O)O)cc(N4CCOCC4)cc32)cccc1C(F)(F)F (top concentration 10000 nM)

>  <category.label>
Condition not met

$$$$

In: Does selective drug sensitivity score meet or surpass 0.4 for CC(C)n1cnc2c(NCCc3ccc(O)cc3)nc(-c3csc4ccccc34)nc21 [StemRegenin_1] (top concentration 10000 nM) ?
Out: Condition not met

In: Does selective drug sensitivity score meet or surpass 0.4 for COC[C@H](NC(=O)c1cnc(C)s1)C(=O)N[C@@H](COC)C(=O)N[C@@H](Cc1ccccc1)C(=O)[C@@]1(C)CO1 [Oprozomib] (top concentration 2500 nM) ?
Out: Condition met

In: Does selective drug sensitivity score meet or surpass 0.4 for N[C@@H]1CCCN(c2c(/C=C3\SC(=O)NC3=O)cccc2-c2ccccc2)C1 [AZD1208] (top concentration 10000 nM) ?
Out: Condition met
